The reported numbers originate from PubChem BioAssay AID1445.

- tested.on: Aminopeptidase N (Plasmodium falciparum (isolate 3D7)) (UniProt O96935)
- Sequence (O96935 whole entry, looked up): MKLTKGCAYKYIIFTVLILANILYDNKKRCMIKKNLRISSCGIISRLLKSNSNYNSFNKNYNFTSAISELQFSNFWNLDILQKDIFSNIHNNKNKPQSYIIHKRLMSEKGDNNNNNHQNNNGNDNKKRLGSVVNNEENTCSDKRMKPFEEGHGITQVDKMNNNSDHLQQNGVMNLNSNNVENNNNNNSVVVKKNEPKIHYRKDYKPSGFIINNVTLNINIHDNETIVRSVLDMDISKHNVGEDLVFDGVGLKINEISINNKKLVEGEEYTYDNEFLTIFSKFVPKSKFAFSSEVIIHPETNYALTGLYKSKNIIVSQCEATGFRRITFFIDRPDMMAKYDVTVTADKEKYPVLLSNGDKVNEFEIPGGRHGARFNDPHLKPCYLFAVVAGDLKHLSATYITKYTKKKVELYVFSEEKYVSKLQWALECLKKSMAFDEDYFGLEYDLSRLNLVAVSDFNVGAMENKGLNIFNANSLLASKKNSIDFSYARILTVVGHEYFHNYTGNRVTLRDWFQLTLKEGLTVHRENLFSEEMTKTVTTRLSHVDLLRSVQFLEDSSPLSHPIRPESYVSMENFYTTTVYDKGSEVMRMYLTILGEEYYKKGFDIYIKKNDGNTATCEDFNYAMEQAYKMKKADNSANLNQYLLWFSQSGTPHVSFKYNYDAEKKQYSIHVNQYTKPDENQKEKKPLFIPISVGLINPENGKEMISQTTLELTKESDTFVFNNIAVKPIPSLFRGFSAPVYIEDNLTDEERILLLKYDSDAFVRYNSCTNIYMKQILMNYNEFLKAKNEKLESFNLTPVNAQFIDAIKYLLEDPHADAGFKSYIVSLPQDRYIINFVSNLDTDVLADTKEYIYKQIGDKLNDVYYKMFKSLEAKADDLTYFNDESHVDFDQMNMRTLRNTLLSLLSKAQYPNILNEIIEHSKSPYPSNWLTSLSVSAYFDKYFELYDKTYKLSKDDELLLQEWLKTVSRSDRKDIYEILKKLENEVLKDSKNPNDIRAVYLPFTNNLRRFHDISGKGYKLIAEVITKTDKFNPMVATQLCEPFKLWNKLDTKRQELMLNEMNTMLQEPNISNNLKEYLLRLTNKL
- experiment.description: malaria alanyl aminopeptidase activity blockers – biochemical, fluorogenic H-Leu-NHMec substrate, 1536-well (AID 1445);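 also: plate controls were DMSO full reaction for no effect and no enzyme background for full effect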
- stated.conditions: recombinant M1AAP, H-Leu-NHMec fluorogenic kinetic assay; at 30 µM, hits give high values unless noted
In all, about 220,000 compounds went through this assay and about 910 (0.41%) were called active. The entries come from a sample that favours actives as a whole. Measured potencies and affinities stand elsewhere.
// reported inhibition for each item listed

molecule: CC(=O)Nc1scc(C)c1-c1nc2ccccc2s1
inhibition: 2.48% (inactive)

molecule: Cc1ccc2nc(-c3ccc(NC(=O)CSCC(=O)O)cc3)sc2c1
inhibition: 7.29% (inactive)

molecule: O=C(c1cnn2ccccc12)N1CCN(C2CCCCC2)CC1
inhibition: 26.7% (active)

molecule: Cc1ccc(-c2c(C#N)c(N)n3c(nc4ccccc43)c2C#N)cc1
inhibition: 25.5% (active)

molecule: COc1ccccc1N(C)S(=O)(=O)c1ccc(C(=O)OCC(=O)Nc2cc(C)on2)cc1
inhibition: -7.23% (inactive)

molecule: N#Cc1c(-c2ccccc2)c(C#N)c2nc3ccccc3n2c1N
inhibition: 3.17% (inactive)

molecule: O=C(O)CCC(=O)Nc1nc2ccccc2s1
inhibition: 1.12% (inactive)

molecule: Cc1nn2c(-c3ccccn3)ccnc2c1Br
inhibition: 7.82% (inactive)

molecule: CC(NC(=O)c1ccccc1Cl)C(=O)O (configuration not stated)
inhibition: -7.3% (inactive)

molecule: CC1(C)Cc2c(sc(/N=C/N3CCCCC3)c2C#N)C(C)(C)N1
inhibition: 6.45% (inactive)

molecule: Cc1cccc(C)c1NC(=O)CCCSc1nc2ccccc2s1
inhibition: -3.68% (inactive)

molecule: O=C(O)CSCC(=O)Nc1ccc(-c2nc3ccccc3s2)cc1
inhibition: 7.28% (inactive)

* * *

- tested.on: Aminopeptidase N (Plasmodium falciparum (isolate 3D7))
- experiment.description: malaria alanyl aminopeptidase activity blockers – biochemical, fluorogenic H-Leu-NHMec substrate, 1536-well (AID 1445);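 also: plate controls were DMSO full reaction for no effect and no enzyme background for full effect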
- stated.conditions: recombinant M1AAP, H-Leu-NHMec fluorogenic kinetic assay; at 30 µM, hits give high values unless noted
Out of some 220,000 compounds screened, about 910 (0.41%) were called active. The full list was thinned out, with actives kept by preference. Measured potencies and affinities stand elsewhere.
quantity.name: inhibition (%)

compound: COc1ccc(N2CSC3=C(C#N)C(c4cccs4)CC(=O)N3C2)cc1 (stereo not drawn)
endpoint.value: 31.7
//
compound: c1ccc2c(c1)N1CCN=C1N2CCN1CCCCC1
endpoint.value: 5.87
//
compound: COc1ccc(C)cc1NC(=O)c1cc2ccccc2o1
endpoint.value: -2.39
//
compound: Cc1ccc(C(=O)Nc2ccccc2C(=O)N2CCCCCC2)cc1
endpoint.value: 4.87
//
compound: CC(=O)Nc1ccc2nc(NC(=O)c3cccs3)sc2c1
endpoint.value: 4.98
//
compound: COc1cc(Cl)c(C)cc1NC(=O)c1ccc2c(SCC(=O)O)c3c(nc2c1)CCCC3
endpoint.value: 39.2
//
compound: C=CCN1C(=S)N[C@@H]2CS(=O)(=O)C[C@@H]21
endpoint.value: 5.08
//
compound: COc1ccc(NC(=O)c2ccc3c(SCC(=O)O)c4c(nc3c2)CCCC4)cc1Cl
endpoint.value: 6.4
//
compound: COc1ccc(C(=O)/C(=C/c2cccs2)c2nc3ccccc3o2)cc1
endpoint.value: 15.5
//
compound: Cc1ccc(C(C(=O)NC(C)(C)C)N(Cc2cccs2)C(=O)c2ccc3c(c2)OCCO3)cc1 (stereo not drawn)
endpoint.value: 9.95
//
compound: CCC(C(=O)Nc1ccncc1)c1ccccc1 (stereo not drawn)
endpoint.value: 2.45
//
compound: CN1C(=O)/C(=C/c2ccccc2OCc2ccc(C(=O)O)cc2)NC1=S
endpoint.value: 22.6
//
compound: COc1cc(CCC(=O)OCC(=O)Nc2c(C)cccc2C(C)C)cc(OC)c1OC
endpoint.value: -0.28
//
compound: COc1ccc(C(=O)/C(=C\c2sccc2C)c2nc3ccccc3o2)cc1
endpoint.value: 2.1
//
compound: O=c1[nH]c2ccc(NC(=S)NCc3ccccc3)cc2[nH]1
endpoint.value: -4.38
//
compound: COc1cccc(C2c3[nH]c4ccccc4c3CCN2Cc2cccn2-c2ncccn2)c1 (stereo not drawn)
endpoint.value: 1.34
//
compound: CC1(C)CC(=O)c2cc(OCC(=O)NCCN3CCCc4ccccc43)ccc2O1
endpoint.value: 6.69
//
compound: O=C1NC(=S)N/C1=C\c1ccccc1OCc1ccc(C(=O)O)cc1
endpoint.value: 14.7
//
compound: CN1C(=O)S/C(=C/c2ccccc2OCc2ccc(C(=O)O)cc2)C1=O
endpoint.value: 6.59
//
compound: CN(C)CCNC(=O)NC1CCCCC1
endpoint.value: 4.13
//
compound: COC(=O)c1ccc(COc2ccc(/C=N/Nc3cccc(C(=O)O)c3)cc2)cc1
endpoint.value: 5.29
//
compound: CCN(CC)c1ccc(NC(=O)c2cccnc2)c(C)c1
endpoint.value: 3.17
//
compound: O=c1sc(/C=N/Nc2ccccc2)c(Cl)n1Cc1ccccc1
endpoint.value: -3.08
